I'd be grateful if you could share measured inhibition at 10 µM for these entries.
Test system: human Th17 cells
Assay: Cytokine response by in vitro-polarized human Th17 cells stimulated with PMA/ionomycin
Assay type: cell-based
Details: 10 μM compound, PMA/ionomycin 20 h, read-out: Percent inhibition of IL-17F (relative to DMSO control)
A complete answer gives the number and then names the unit.

# batch size: 5; output inhibition at 10 µM per entry
1. CCOc1cc(C(=O)NCC2CC2)ccc1Nc1cc2c(cn1)N(C)C(=O)c1ccccc1N2C
2. CCOc1cc(C(=O)N2CC[C@@H](N(C)C)C2)ccc1Nc1cc2c(cn1)N(C)C(=O)c1ccccc1N2C
3. CCOc1cc(C(=O)N2CCC(N3CCCC3)CC2)ccc1Nc1cc2c(cn1)N(C)C(=O)c1ccccc1N2C
4. CCOc1cc(C(=O)N2CCNCC2)ccc1Nc1cc2c(cn1)N(C)C(=O)c1ccccc1N2C
5. CCOc1cc(C(=O)N2CCC(N3CCN(C)CC3)CC2)ccc1Nc1cc2c(cn1)N(C)C(=O)c1occc1N2C

(A)
["67.4%", "83.5%", "81.8%", "60%", "39.7%"]

(Q) # inhibition at 10 µM lookup, item CCOc1cc(C(=O)N2CCC(N3CCN(C)CC3)CC2)ccc1Nc1cc2c(cn1)N(C)C(=O)c1ccccc1N2C
(A) 80.9%

* * *

Molecular target: ACK (Homo sapiens, UniProt Q07912)
Construct: screened for activity against several kinases in Jurkat cells; endogenous in cells; host or cells: Jurkat cell lysate
Sequence (Q07912 whole entry): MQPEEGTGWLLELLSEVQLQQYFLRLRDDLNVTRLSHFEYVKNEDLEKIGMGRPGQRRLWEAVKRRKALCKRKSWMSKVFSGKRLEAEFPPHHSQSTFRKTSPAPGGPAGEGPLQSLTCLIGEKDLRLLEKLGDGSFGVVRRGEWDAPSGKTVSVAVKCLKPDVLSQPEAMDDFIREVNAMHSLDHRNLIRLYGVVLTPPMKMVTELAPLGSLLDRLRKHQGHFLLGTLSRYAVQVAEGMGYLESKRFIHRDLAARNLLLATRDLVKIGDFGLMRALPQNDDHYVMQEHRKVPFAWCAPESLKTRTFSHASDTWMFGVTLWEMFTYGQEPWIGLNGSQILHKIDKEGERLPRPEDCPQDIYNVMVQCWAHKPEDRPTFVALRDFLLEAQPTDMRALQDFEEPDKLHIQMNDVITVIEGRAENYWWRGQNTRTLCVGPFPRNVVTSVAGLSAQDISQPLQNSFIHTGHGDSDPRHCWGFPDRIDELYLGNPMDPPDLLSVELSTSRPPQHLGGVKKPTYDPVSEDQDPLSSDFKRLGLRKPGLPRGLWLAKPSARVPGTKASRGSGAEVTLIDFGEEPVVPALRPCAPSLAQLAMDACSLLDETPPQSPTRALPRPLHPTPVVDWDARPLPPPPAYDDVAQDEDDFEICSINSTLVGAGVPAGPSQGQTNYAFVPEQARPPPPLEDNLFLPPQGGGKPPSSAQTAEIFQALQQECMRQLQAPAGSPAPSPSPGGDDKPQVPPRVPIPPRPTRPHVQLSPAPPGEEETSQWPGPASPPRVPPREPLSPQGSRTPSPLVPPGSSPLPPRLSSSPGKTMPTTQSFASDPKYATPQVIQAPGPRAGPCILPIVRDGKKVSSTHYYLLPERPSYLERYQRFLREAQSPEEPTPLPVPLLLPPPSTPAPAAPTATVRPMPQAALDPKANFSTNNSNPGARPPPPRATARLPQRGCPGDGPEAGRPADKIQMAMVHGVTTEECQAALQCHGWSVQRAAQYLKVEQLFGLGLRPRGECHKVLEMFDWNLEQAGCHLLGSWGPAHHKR
Assay: Probe-based (AX9989) kinase profiling in Jurkat lysate: ACK
Assay type: binding
Conditions: screening concentration 0.1 μM; read-out: Kinase inhibition % at indicated screening concentration: ACK
parameter-measured: inhibition at 0.1 µM

C=CCN1CCN(C(=O)c2ccc(Nc3cc4c(cn3)N(C)C(=O)c3ccccc3N4C)c(OCC)c2)CC1: ≤ 35%
CCOc1cc(CO)ccc1Nc1cc2c(cn1)N(C)C(=O)c1ccccc1N2C: ≤ 35%
CCOc1cc(C(=O)N2CC[C@@H](N3CCCC3)C2)ccc1Nc1cc2c(cn1)N(C)C(=O)c1ccccc1N2C: ≤ 35%
CCOc1cc(C(=O)N2CCNC[C@@H]2C)ccc1Nc1cc2c(cn1)N(C)C(=O)c1ccccc1N2C: ≤ 35%
CCOc1cc(C(=O)N2CCC(NC)C2)ccc1Nc1cc2c(cn1)N(C)C(=O)c1occc1N2C (stereo not shown): ≤ 35%

# batch size: 2; output inhibition at 0.1 µM per entry
1. CCOc1cc(C(=O)N2CCC(N)C2)ccc1Nc1cc2c(cn1)N(C)C(=O)c1occc1N2C (stereo not shown)
2. CCOc1cc(C(=O)N2CC[C@@H](NC)C2)ccc1Nc1cc2c(cn1)N(C)C(=O)c1ccccc1N2C

(A)
1. ≤ 35%
2. ≤ 35%

* * *

Test system: cynomolgus monkey PBMCs
Test: Cytokine response by primary cynomolgus monkey PBMCs stimulated with LPS
Type: cell-based, cynomolgus monkey (M. fascicularis)
Settings: Macaca fascicularis, PBMC; 100 ng/ml LPS 20 h; read-out: EC50 (μM) under LPS stimulation, IL-6
I'd be grateful if you could share measured EC50 for these entries.

CCOc1cc(C(=O)N2CCC(N3CCCC3)CC2)ccc1Nc1cc2c(cn1)N(C)C(=O)c1ccccc1N2C: 0.6 µM

(Q) # EC50 lookup, item CCOc1cc(C(=O)N2CCCN(C)CC2)ccc1Nc1cc2c(cn1)N(C)C(=O)c1ccccc1N2C
(A) 1.42 µM
